- STUDY_SYSTEM: Phosphatidylinositol 4,5-bisphosphate 3-kinase catalytic subunit delta isoform (Homo sapiens)
- Sequence (O00329 whole entry): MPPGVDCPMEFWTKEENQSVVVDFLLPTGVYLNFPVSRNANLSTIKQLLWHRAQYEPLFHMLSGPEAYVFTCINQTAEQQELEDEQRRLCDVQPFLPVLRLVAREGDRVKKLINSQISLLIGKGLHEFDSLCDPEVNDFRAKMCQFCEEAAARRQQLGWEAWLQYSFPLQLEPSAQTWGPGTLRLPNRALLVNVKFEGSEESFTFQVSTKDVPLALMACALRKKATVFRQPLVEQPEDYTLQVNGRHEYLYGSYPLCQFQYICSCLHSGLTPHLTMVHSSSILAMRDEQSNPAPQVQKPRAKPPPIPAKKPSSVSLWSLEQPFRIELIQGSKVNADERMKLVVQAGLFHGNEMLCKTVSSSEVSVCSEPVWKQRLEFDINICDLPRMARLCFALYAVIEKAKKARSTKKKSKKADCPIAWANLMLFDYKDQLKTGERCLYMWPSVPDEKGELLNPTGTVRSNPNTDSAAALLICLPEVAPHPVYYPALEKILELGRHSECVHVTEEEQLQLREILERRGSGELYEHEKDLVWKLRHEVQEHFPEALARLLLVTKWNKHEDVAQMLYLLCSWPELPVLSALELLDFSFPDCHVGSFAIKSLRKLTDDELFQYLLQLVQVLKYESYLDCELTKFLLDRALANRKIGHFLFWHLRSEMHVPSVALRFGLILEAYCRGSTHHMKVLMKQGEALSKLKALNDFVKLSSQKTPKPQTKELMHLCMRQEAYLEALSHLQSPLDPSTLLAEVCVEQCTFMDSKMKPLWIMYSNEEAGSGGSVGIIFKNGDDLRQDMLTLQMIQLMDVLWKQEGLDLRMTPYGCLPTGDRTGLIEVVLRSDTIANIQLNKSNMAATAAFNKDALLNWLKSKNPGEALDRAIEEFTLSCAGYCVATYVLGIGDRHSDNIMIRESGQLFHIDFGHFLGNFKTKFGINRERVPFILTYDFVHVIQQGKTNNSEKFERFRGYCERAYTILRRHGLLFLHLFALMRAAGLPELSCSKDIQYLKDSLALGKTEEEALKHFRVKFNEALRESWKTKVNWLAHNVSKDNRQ
- EXPERIMENT: Inhibition of PI3Kdelta (unknown origin) using PIP2 as substrate measured after 1 hr in presence of ATP by ADP-Glo reagent based assay
METRIC_NAME: IC50 (nM)
Answers are plain numbers, in nM.

INSERT INTO results (smiles_structure, metric_name, unit_abbrev, recorded_value) VALUES
  ('NC(=O)[C@H]1CCCN1C(=O)c1ccc2nc(Nc3ccc(-c4nc(N5CCOCC5)nc(N5CCOCC5)n4)cc3)[nH]c2c1', 'IC50', 'nM', 5.1);

I'm hoping you can list IC50 for every compound here, please.
1. CN1CCN(C(=O)c2ccc3nc(Nc4ccc(-c5nc(N6CCOCC6)nc(N6CCOCC6)n5)cc4)[nH]c3c2)CC1
2. NC(=O)C1CCN(C(=O)c2ccc3nc(Nc4ccc(-c5nc(N6CCOCC6)nc(N6CCOCC6)n5)cc4)[nH]c3c2)CC1
3. O=C(c1ccc2nc(Nc3ccc(-c4nc(N5CCOCC5)nc(N5CCOCC5)n4)cc3)[nH]c2c1)N1CCOCC1

(A)
1. 13
2. 2.3
3. 44

(Q) Give a short answer stating reported IC50 for C[C@H](NC(=O)c1ccc2nc(Nc3ccc(-c4nc(N5CCOCC5)nc(N5CCOCC5)n4)cc3)[nH]c2c1)C(N)=O .
(A) 5
